# Assay explanation: chemical genetic growth profiling, strain panel (AID 1159580);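 also: tested at 20 µM; growth read once vehicle control cultures reached saturation at 30 °C; 1 = growth at the plate median or of vehicle wells; lower values mean less growth of the strain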
# Condition parameters: S. cerevisiae deletion strains, growth OD, locus YBR023C, strain chs3, active compounds read low
Among all 5,500 compounds or so, about 2,000 (36%) were called active. Not shown: some 18% with an inconclusive outcome. Some of the results follow.
A collection of compounds and their measured normalized growth
Observed property: normalized growth

1) Oc1cc(O)c2c(c1)O[C@H](c1ccc(O)c(O)c1)[C@@H](O)C2	1.02
2) Oc1cc(O)c2c(c1)O[C@H](c1cc(O)c(O)c(O)c1)[C@H](O)C2	1.02
3) OCC(O)CN1CCN(c2ccccc2)CC1 (configuration not stated)	0.997
4) NCCCS(=O)(=O)O	1.03
5) O=S(=O)(O)CCS	0.989
6) O=C(O)/C=C/c1ccc(O)c(O)c1	1
7) CN1CC(=O)N=C1N	1.03

* * *

# Assay explanation: chemical genetic growth profiling, strain panel (AID 1159580);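 also: tested at 20 µM; growth read once vehicle control cultures reached saturation at 30 °C; 1 = growth at the plate median or of vehicle wells; lower values mean less growth of the strain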
# Condition parameters: S. cerevisiae deletion strains, growth OD, locus YNL209W, strain ssb2, active compounds read low
The whole screen tested about 5,500 compounds, of which about 2,000 (36%) were called active. Not shown: some 18% with an inconclusive outcome. The list shows a part of the results.
Observed property: normalized growth

1) CC[C@@]1(O)C[C@H](O[C@H]2C[C@H](N(C)C)[C@H](O)[C@H](C)O2)c2c(cc3c(c2O)C(=O)c2c(O)cccc2C3=O)[C@H]1C(=O)OC	0.871
2) CC1(O)CC2C(CC1O)C2(C)C (centres undefined)	1.01
3) C#CCN(C)Cc1ccccc1	1.02
4) CCn1cc(C(=O)O)c(=O)c2cc(F)c(N3CCNC(C)C3)c(F)c21 (centres undefined)	0.965
5) COC(=O)c1cc(=O)c(O)c2c(O)c(O)ccc2c1	0.99
6) CC1CCc2cc(F)cc3c(=O)c(C(=O)O)cn1c23 (centres undefined)	0.996
7) OCCc1ccccc1	0.988
8) CCCCC/C=C/CCC(=O)N[C@H]1[C@H](Oc2c3cc4cc2Oc2ccc(cc2Cl)[C@@H](O[C@@H]2O[C@H](CO)[C@@H](O)[C@H](O)[C@H]2NC(C)=O)[C@@H]2NC(=O)[C@H](NC(=O)[C@@H]4NC(=O)[C@H]4NC(=O)C(Cc5ccc(c(Cl)c5)O3)NC(=O)[C@H](N)c3ccc(O)c(c3)Oc3cc(O)cc4c3)c3ccc(O)c(c3)-c3c(OC4O[C@H](CO)[C@@H](O)[C@H](O)[C@@H]4O)cc(O)cc3[C@@H](C(=O)O)NC2=O)O[C@H](CO)[C@@H](O)[C@@H]1O (some centres undefined)	1
9) CC[C@@]1(O)C[C@H](O[C@H]2C[C@H](N(C)C)[C@H](O)[C@H](C)O2)c2c(cc3c(c2O)C(=O)c2c(O)ccc(O)c2C3=O)[C@H]1C(=O)OC	0.82
10) CCCCNC(=O)NS(=O)(=O)c1ccc(C)cc1	1.02
11) CC[C@@]1(O)C[C@H](O)c2c(cc3c(c2O)C(=O)c2c(O)ccc(O)c2C3=O)[C@H]1C(=O)OC	0.895
12) Cc1ccc(S(=O)(=O)NC(=O)NN2CCCCCC2)cc1	0.968
13) C[C@H]1COc2c(N3CCN(C)CC3)c(F)cc3c(=O)c(C(=O)O)cn1c23	1.01
14) O=C1NCC2(CCN(CCc3ccccc3)CC2)O1	0.998
15) CCN(CC)Cc1ccc(Nc2ccnc3cc(Cl)ccc23)cc1O	1.01
16) CCn1cc(C(=O)O)c(=O)c2cc(F)c(N3CCNCC3)nc21	0.971
17) O=C(O)CCCc1ccc(N(CCCl)CCCl)cc1	0.976
18) COc1c(N2CCNC(C)C2)c(F)cc2c(=O)c(C(=O)O)cn(C3CC3)c12 (centres undefined)	0.986
19) COc1ccc(C(=O)CC(=O)O)c2c1C=CC(C)(C)O2	1.01

The values you see were collected from PubChem BioAssay AID1159580.
